Data provenance: ChEMBL document CHEMBL5303300

system: U2OS; assay: Multiplex assay against U2OS; type: toxicity, cell-based; conditions: human, 12 h, 1 µM, compound concentration 1 uM, number of replicates 2
*1 amine or outer side, *2 acyl side, *3 side chain or, on linkers, in order; H or OH if unused. Where a SMILES comes first, the peptide text is derived from it. Bridges are numbered along the chain shown (N, C = ends). Roman numbers before positions name the chains, in order. [ ]: non-standard residue; d: D form. Hexamethylenediamine = C(CCCN[*:2])CCN[*:1]; Dip = N[C@H](C(=O)O)C(c1ccccc1)c1ccccc1; Chg = N[C@H](C(=O)O)C1CCCCC1; NMeA = CN[C@@H](C)C(=O)O
MEASUREMENT_NAME: Population Membrane Permeable-Phenotype (%)
Param answer (str): number followed by unit.

compound="CC(C)S(=O)(=O)c1ccccc1Nc1nc(N[C@@H]2CCCN(CCCCCCCNC(=O)COc3cccc4c3C(=O)N(C3CCC(=O)NC3=O)C4=O)C2)ncc1Cl (stereo not given in full)" observed=5%

Q: Request the reported Population Membrane Permeable-Phenotype (%) associated with CC(C)c1c(NC(=O)Nc2ccc(Cl)cc2)c(=O)n(-c2ccccc2)n1C
A: 0%

Q: Likewise for CN(C)CCCNc1ccnc(Nc2cccc(Cl)c2)n1 ?
A: 0%

Q: Likewise for CN[C@@H](C)C(=O)N[C@H](C(=O)N1CCC[C@H]1C(=O)N[C@H](C(=O)NCCCCCCNC(=O)[C@@H](NC(=O)[C@@H]1CCCN1C(=O)[C@@H](NC(=O)[C@H](C)NC)C1CCCCC1)C(c1ccccc1)c1ccccc1)C(c1ccccc1)c1ccccc1)C1CCCCC1 (I: H-[NMeA][Chg]P[Dip] / II: H-[NMeA][Chg]P[Dip]; linker I:C-II:C via Hexamethylenediamine) ?
A: 0%

Q: Likewise for CNS(=O)(=O)c1ccc(N(C)C)c(Nc2ncnc3cc(OC)c(OC)cc23)c1 ?
A: 0%

* * *

Population Fragmented Nuclei (%) values by entry
system: Fibroblast; assay: Multiplex assay against human fibroblast; assay type: toxicity, cell-based; details: 48 h, 1 µM, compound concentration 1 uM, number of replicates 2
API: value field is a number in %; no unit string.

Worked cases, answers included:
smiles_repr=C=CC(=O)Nc1cccc(C)c1Nc1ncc2cc(-c3c(Cl)c(OC)cc(OC)c3Cl)ccc2n1 subject_of_test=Fibroblast observed=12
smiles_repr=CC(C)NC(=O)[C@H]1CCC[C@H]1Nc1nc(Nc2ccc(C(=O)N(C)C3CCN(C)CC3)cc2)ncc1Cl subject_of_test=Fibroblast observed=14
smiles_repr=CS(=O)(=O)c1ccc(C(=O)Nc2cc(F)cc(COc3cc(F)c(Br)cc3CN3CC[C@H](O)C3)c2)c(Cl)c1.O=CO subject_of_test=Fibroblast observed=25

Q: Param readout= Population Fragmented Nuclei (%); system= Fibroblast; entry= CCN1C(=O)N(c2c(F)c(OC)cc(OC)c2F)Cc2cnc3[nH]c(CN4CCOCC4)cc3c21 ; returns value.
A: 10

* * *

Population Hoechst High Intensity Objects (%) values by entry
tested on: U2OS; test: Multiplex assay against U2OS; assay type: toxicity, cell-based; conditions: human, 24 h, 1 µM, compound concentration 1 uM, number of replicates 2
*1 amine or outer side, *2 acyl side, *3 side chain or, on linkers, in order; H or OH if unused. Where a SMILES comes first, the peptide text is derived from it. Bridges are numbered along the chain shown (N, C = ends). Roman numbers before positions name the chains, in order. [ ]: non-standard residue; d: D form. Hexamethylenediamine = C(CCCN[*:2])CCN[*:1]; Dip = N[C@H](C(=O)O)C(c1ccccc1)c1ccccc1; Chg = N[C@H](C(=O)O)C1CCCCC1; NMeA = CN[C@@H](C)C(=O)O
API: value field is a number in %; no unit string.

Worked cases, answers included:
compound="CN[C@@H](C)C(=O)N[C@H](C(=O)N1CCC[C@H]1C(=O)N[C@H](C(=O)NCCCCCCNC(=O)[C@@H](NC(=O)[C@@H]1CCCN1C(=O)[C@@H](NC(=O)[C@H](C)NC)C1CCCCC1)C(c1ccccc1)c1ccccc1)C(c1ccccc1)c1ccccc1)C1CCCCC1 (I: H-[NMeA][Chg]P[Dip] / II: H-[NMeA][Chg]P[Dip]; linker I:C-II:C via Hexamethylenediamine)" observed=0
compound=COc1ccccc1-c1cc(Nc2cccc(CS(N)(=O)=O)c2)ncn1 observed=0
compound="Cc1ccc2c(N)c(C(=O)NC3CCc4cc(N5CC6CCC(C5)N6)ccc4C3)sc2n1.O=CO (stereo not given)" observed=0
compound="CC1=C(C)C(=O)C(C(CCCCCC(=O)O)c2ccccc2)=C(C)C1=O (stereo not given)" observed=0
compound=CNS(=O)(=O)c1ccc(N(C)C)c(Nc2ncnc3cc(OC)c(OC)cc23)c1 observed=0
compound=CC(C)c1cc(-c2ccc(F)c3ccccc23)nc(N)n1 observed=0

Q: Request the reported Population Hoechst High Intensity Objects (%) associated with CSc1cc2c(cc1C(F)(F)F)N(C(=O)Nc1cccnc1)CC2
A: 0

* * *

Population Membrane Permeable-Phenotype (%) values by entry
tested on: HEK-293T; assay: Multiplex assay against HEK293T; type: toxicity, cell-based; conditions: human, 12 h, 10 µM, compound concentration 10 uM, number of replicates 2
API: value field is a number in %; no unit string.

Worked cases, answers included:
smiles_repr=CSc1cc2c(cc1C(F)(F)F)N(C(=O)Nc1cccnc1)CC2 subject_of_test=HEK-293T observed=3
smiles_repr=COc1ccccc1-c1cc(Nc2cccc(CS(N)(=O)=O)c2)ncn1 subject_of_test=HEK-293T observed=3
smiles_repr=COc1ccncc1C(=O)NC(=O)Nc1ccc(-c2ccccc2)c(C(F)(F)F)c1 subject_of_test=HEK-293T observed=2

Q: Param readout= Population Membrane Permeable-Phenotype (%); system= HEK-293T; entry= O=C1NC(=NCc2cccs2)SC1=Cc1ccc2ncccc2c1 ; returns value.
A: 4

Q: Likewise for CC(=O)O[C@H]1C(=O)[C@@]2(C)[C@H]([C@H](OC(=O)c3ccccc3)[C@]3(O)C[C@H](OC(=O)[C@H](O)[C@@H](NC(=O)c4ccccc4)c4ccccc4)C(C)=C1C3(C)C)[C@]1(OC(C)=O)CO[C@@H]1C[C@@H]2O ?
A: 0

Q: Likewise for COC(=O)Nc1nc2c(s1)-c1c(c(-c3cccnc3)nn1-c1ccc(C3(N(C)C)CC3)cc1)CC2.Cl.Cl ?
A: 3

Q: Likewise for CN1CCc2cc(Nc3ncc(C(F)(F)F)c(NCc4cc[nH]n4)n3)ccc2C1 ?
A: 0

Q: Likewise for CCN1C(=O)N(c2c(F)c(OC)cc(OC)c2F)Cc2cnc3[nH]c(CN4CCOCC4)cc3c21 ?
A: 2

* * *

system: U2OS; test: Multiplex assay against U2OS; assay type: toxicity, cell-based; details: human, 24 h, 10 µM, compound concentration 10 uM, number of replicates 2
Population Mitochondria Different-Phenotype (%) values by entry
API: value field is a number in %; no unit string.

Q: Param readout= Population Mitochondria Different-Phenotype (%); system= U2OS; entry= CC(C)c1c(NC(=O)Nc2ccc(Cl)cc2)c(=O)n(-c2ccccc2)n1C ; returns value.
A: 0

* * *

system: HEK-293T; assay: Multiplex assay against HEK293T; assay type: toxicity, cell-based; settings: human, 24 h, 1 µM, compound concentration 1 uM, number of replicates 2
MEASUREMENT_NAME: Population Fragmented Nuclei (%)
API: value field is a number in %; no unit string.

Worked cases, answers included:
compound=CNc1ncc2cc(-c3ccc(-c4cccc(C)n4)cc3Cl)c(=O)n(C[C@H]3OC[C@H](N)CO3)c2n1 observed=3
compound="O=C1Nc2ccc(C(=O)c3ccco3)cc2C1=Cc1cc(Cl)c(O)c(Cl)c1 [GW406108X]" observed=7
compound=O=C(Nc1ccnc(NC(=O)C2CC2)c1)c1c(Cl)cccc1Cl observed=4
compound=COC(=O)Nc1nc2c(s1)-c1c(c(-c3cccnc3)nn1-c1ccc(C3(N(C)C)CC3)cc1)CC2.Cl.Cl observed=4
compound=CC(C)c1c(NC(=O)Nc2ccc(Cl)cc2)c(=O)n(-c2ccccc2)n1C observed=5

Q: Request the reported Population Fragmented Nuclei (%) associated with COc1cc(C(N)=O)ccc1Nc1ncc2c(n1)N(CCC(C)C)[C@H](C)C(=O)N2C
A: 5

Q: Likewise for COc1ccc2cc(S(=O)(=O)N[C@H](CC(=O)N[C@H](Cc3ccc(CN4[C@H](C)CCC[C@@H]4C)cc3)C(=O)N(C)C(C)C)c3ccc4c(c3)OCO4)ccc2c1.Cl ?
A: 5

* * *

Population Apoptotic (%) values by entry
test system: U2OS; experiment: Multiplex assay against U2OS; type: toxicity, cell-based; settings: human, 24 h, 10 µM, compound concentration 10 uM, number of replicates 2
Param answer (str): number followed by unit.

compound=COc1ccc(F)c(F)c1C(=O)c1cnc(NC2CCN(S(C)(=O)=O)CC2)nc1N subject_of_test=U2OS observed=85%
compound=CCN(CC)C/C=C/C(=O)Nc1cc2c(Nc3ccc(F)c(Cl)c3)ncnc2cc1OCC1CC1 subject_of_test=U2OS observed=93%
compound="Cc1ccc2c(N)c(C(=O)NC3CCc4cc(N5CC6CCC(C5)N6)ccc4C3)sc2n1.O=CO (centres undefined)" subject_of_test=U2OS observed=56%

For the next question, use this compound.
Q: Request the reported Population Apoptotic (%) associated with COc1ccccc1-c1cc(Nc2cccc(CS(N)(=O)=O)c2)ncn1
A: 80%
